Measured IC50 at 48 h of individual entries
Assay: GSK_TCAKS: pIC50 HepG2 human cell line viability assay using luminiscence. […] Seeding density was checked to ensure that new mono-layers were not more than 50% confluent at the time of harvesting. Cell suspension was added to 500 mL of the same medium at a final density of 1.2 * 10^5 cells/mL. This cell suspension was dispensed (25 uL, 3000 cells per well) into 384-well clear-bottom plates using a Multidrop Combi dispenser. Prior to addition of the cell suspension, the screening compounds (250 nL) were pre-dispensed into the plates with an Echo liquid handler. Plates were incubated for 48 h at 37C, 5% CO2. After incubation, plates equilibrated at room temperature for 30 min before proceeding to develop the luminescent signal. The signal developer, CellTiter-Glo Reagent, was allowed to equilibrate at room temperature for 30 min and added to the plates (25uL per well) using a Multidrop Combi dispenser. Plates were left for 10 min at room temperature for stabilization and then read using a ViewLux.
Format: toxicity, cell-based
test-readout: IC50 at 48 h

INSERT INTO assay_data (compound, meas_value) VALUES
  ('Cc1nn(C2CCS(=O)(=O)C2)c(C)c1CN(C)C(=O)C=Cc1sc2ccccc2c1Cl (stereo unspecified)', '> 100 µM'),
  ('CC(C)Oc1cccc(N2CCC(C(=O)N3CCCN(C(C)C)CC3)CC2)c1', '> 100 µM'),
  ('COc1ccc2nccc([C@H](O)CN3CC[C@H](NC(=O)c4ccc(Br)cc4)[C@@H](O)C3)c2n1', '> 100 µM'),
  ('Cc1cc(N2CCc3ccccc3C2)nc(Nc2ccc(S(=O)(=O)N3CCOCC3)cc2)n1', '> 100 µM'),
  ('O=C(c1ccccc1)N1CCC(C(=O)N2CCC(Oc3ccccc3Cl)CC2)CC1', '> 100 µM'),
  ('COCCn1cnc2cc(NC(=O)C3CCCCC3)cc(C(=O)N3CCc4sccc4C3)c21', '> 100 µM'),
  ('Cc1ccc2c(c1)-c1onc(C(=O)N3CCCCC3c3cccnc3)c1CO2 (stereo unspecified)', '50.1 µM'),
  ('CC1(C)CCC(=Cc2ccc(Cl)cc2)CC1(O)Cn1ccnc1 (stereo unspecified)', '50.1 µM'),
  ('Clc1cc(Br)ccc1OCCCCn1ccnc1', '50.1 µM'),
  ('CC(C)(C)c1csc(NC(=O)c2ccc([N+](=O)[O-])s2)n1', '50.1 µM'),
  ('CCN(CC)S(=O)(=O)c1ccc(C(=O)Nc2cc(C)nn2-c2nc(C)c(C)c(=O)[nH]2)cc1', '> 100 µM'),
  ('CNc1nc(C)nc(N2CCc3cc(C(=O)NCc4ccc(-c5nccn5C)cc4Cl)ccc32)n1', '31.6 µM'),
  ('Cc1cccc(NS(=O)(=O)c2ccc3c(c2)C(=O)c2cc(S(=O)(=O)Nc4cccc(C)c4C)ccc2-3)c1C', '> 100 µM'),
  ('Cc1ccc(Nc2nc(N)nc(CNC(c3nc4ccccc4[nH]3)C(C)C)n2)cc1 (stereo unspecified)', '> 100 µM'),
  ('CCc1ccccc1[C@@H](C)NC(=O)c1cnc2c(cnn2CC)c1NC1CCN(C(N)=O)CC1', '> 100 µM'),
  ('CCC(c1ccc(F)cc1)n1cncc1-c1cnn(C)c1 (stereo unspecified)', '> 100 µM'),
  ('COc1cc(Cl)c(C)cc1NC(=O)c1ccc([N+](=O)[O-])s1', '31.6 µM'),
  ('COc1ccc(-c2cc(C)no2)cc1S(=O)(=O)Nc1ccc(F)c(Cl)c1', '79.4 µM'),
  ('O=C(Nc1nc2cc(Cl)ccc2o1)c1cccc(Cl)c1', '> 100 µM'),
  ('Cc1nc(C(=O)Nc2ccc3c(c2)OCO3)nn1-c1ccc(Cl)cc1', '> 100 µM'),
  ('CC(=O)NC1(c2ccccc2)CCN(CC(=O)Nc2ccccc2-c2ccccc2)CC1', '> 100 µM');

---

Tested on: Trypanosoma brucei brucei
Experiment: GSK_TCAKS: pIC50 Trypanosoma brucei viability assay using fluorescence intensity. Assay plates (1536-well) were prepared by dispensing 25nL of compound solution per well using an Echo acoustic dispenser (Labcyte).
Assay type: functional, organism-based
Conditions: Lister 427, 2 h
pIC50: −log10 of the molar value.
Measured pIC50 of individual entries
test-readout: pIC50

INSERT INTO assay_data (molecule, comparative_sign, meas_value) VALUES
  ('O=C(O)[C@H]1C[C@@H]1c1ccc(-c2ccc(CN(CCc3ccccn3)C(=O)C3CCC3)cc2)cc1', '=', 6.20),
  ('CC1CCCCN1C(=O)NCCc1coc(-c2ccc(F)cc2)n1 (configuration not stated)', '=', 6.90),
  ('O=C(NCC1CCCCC1)c1cnns1', '=', 6.00),
  ('c1cc(-c2ncc(-c3ccn[nH]3)s2)ccn1', '=', 4.70),
  ('NC(=O)c1ncccc1Nc1nc(N[C@H]2CC[C@H](O)CC2)ncc1Br', '=', 6.50),
  ('Cc1cc(N(C)C)nc(Nc2ccccc2C)n1', '=', 4.50),
  ('CCOc1cnn(C)c(=O)c1Nc1ccc(C(=O)NCc2ccc(F)cc2)cc1', '<', 4.40),
  ('Cc1nc2c(-c3nc(-c4ccccc4N)n[nH]3)cccn2c1C', '=', 6.00),
  ('Cc1cc(C)nc(N2CCC(N(Cc3cccnc3)C(=O)c3cccc(C#N)c3)CC2)n1', '<', 4.40),
  ('CN(Cc1nnnn1C1CCN(Cc2ccc(-n3ccnc3)cc2)CC1)c1ccc(F)cc1F', '<', 4.40),
  ('COc1ccc(-c2cnc(NC(=O)c3ccc(F)cc3)n2C)cc1', '=', 5.90),
  ('N#Cc1cnc(Nc2cccc(CCN3CCOCC3)c2)nc1Nc1ccccc1C(N)=O', '=', 7.20),
  ('CC(=O)NC1(c2ccccc2)CCN(CC(=O)Nc2ccccc2-c2ccccc2)CC1', '=', 6.20),
  ('CNC(=O)Oc1ccc(C(=O)NCc2ccccc2)cc1OC(=O)NC', '=', 6.90),
  ('COc1ccc([N+](=O)[O-])cc1NC(=O)c1cc(Cl)ccc1O', '=', 4.60),
  ('CCCCCNC(=O)c1c[nH]c2ccc(S(=O)(=O)N(C)c3ccc(OCC)cc3)cc2c1=O', '=', 6.50),
  ('O=C(CSc1ccc(-c2ccccn2)nn1)Nc1ccc(Cl)cc1', '=', 5.00),
  ('CCOc1ccc(CN(C)Cc2nc(Nc3ccc(C)cc3)[nH]c(=N)n2)cc1', '=', 5.60),
  ('COc1ccc(OC)c(NC(=O)c2ccc([N+](=O)[O-])o2)c1', '=', 7.80),
  ('CNC(=O)C1Cc2ccccc2N1C(=O)COc1cccc(OC)c1 (configuration not stated)', '=', 6.20),
  ('Cc1cc(N2CCc3ccccc3C2)nc(Nc2ccc(S(=O)(=O)N3CCOCC3)cc2)n1', '=', 4.50),
  ('CCC(c1ccc(F)cc1)n1cncc1-c1cnn(C)c1 (configuration not stated)', '<', 4.40),
  ('O=C(Nc1nc(-c2ccccn2)cs1)c1ccc(S(=O)(=O)N2CCCCC2)cc1', '=', 6.40),
  ('O=C1CN(C2CCCc3c(OCc4ccncc4)cccc32)C(=O)N1C1CCCCC1 (configuration not stated)', '=', 4.80),
  ('CN1CCN(c2nc(-c3ccc(Cl)cc3)c3c(N)n(C)nc3n2)CC1', '=', 4.90),
  ('O=C(Nc1cccc(S(=O)(=O)Nc2ccc(Br)cc2)c1)c1ccc([N+](=O)[O-])s1', '=', 6.70),
  ('O=C(Nc1ccc(C(=O)N2CCCC2c2ccc3c(c2)OCCCO3)cc1)c1ccco1 (configuration not stated)', '=', 6.70),
  ('Cc1nc(-c2ccncc2)ncc1C(C)NC(=O)c1ccc(Cl)s1 (configuration not stated)', '=', 6.00),
  ('Cc1ccc(NC(C)C(=O)Nc2ccc(C#N)cc2)cc1S(=O)(=O)N1CCCCC1 (configuration not stated)', '=', 5.10),
  ('Cc1nc(C(=O)Nc2ccc3c(c2)OCO3)nn1-c1ccc(F)cc1', '<', 4.40),
  ('Cn1nc(C(=O)N2CCc3ccccc32)c2c1CCS(=O)(=O)C2', '=', 5.40),
  ('O=C(Nc1nccs1)c1ccccc1Cn1cc([N+](=O)[O-])cn1', '=', 6.50),
  ('CC(Cn1ccnc1)NC(=O)C1CC1c1cccc(Cl)c1Cl (configuration not stated)', '<', 4.40),
  ('COc1ccc(S(=O)(=O)Nc2ccc(CN3CCN(C(=O)c4cccc(C#N)c4)CC3)cc2)cc1', '=', 6.40),
  ('c1ccc2[nH]c(-c3ccc(N4CCCC4)nc3)nc2c1', '=', 6.10),
  ('Cc1nc(N2CC(C)OC(C)C2)sc1C(=O)Nc1ccc2c(c1)OCO2 (configuration not stated)', '=', 4.40),
  ('Cc1sc(C)c(C(F)(F)F)c1CNCCCNc1cc(=O)c2ccccc2[nH]1', '=', 8.00);
